CONDITION PARAMETERS: buffer; pH 7.4; 200.0 µM
Mark no (0) for solubility kinetic values under 4 µg/mL, and yes (1) for everything at or above.

COMPOUND: COc1ccc(CC(=O)O/N=C(\N)c2ccccn2)cc1
LABEL: yes (1)

Check if solubility kinetic >= 4 µg/mL (inclusive). Item: COc1ccc(NS(=O)(=O)c2cc(NC(=O)c3ccccc3)ccc2N2CCOCC2)cc1
yes (1)

API: above_or_equal(metric=solubility kinetic, cutoff=4 µg/mL) for item CCNc1nc(Cl)nc(NC2CCCCC2)n1
yes (1)

Is the recorded value of solubility kinetic equal to or greater than 4 µg/mL for this compound? CC(=O)c1cccc(OCC(=O)OCC(=O)Nc2cc(S(=O)(=O)N3CCCCC3)ccc2C)c1
yes (1)

Check the entry Oc1ccc(Br)cc1CNc1cnc2ccccc2c1 : does solubility kinetic equal or exceed 4 µg/mL?
no (0)

Form field: solubility kinetic at least 4 µg/mL? Entry: COc1ccccc1NC(=S)N1CCCCCC1
yes (1)

Reported solubility kinetic at or above 4 µg/mL? Cc1ccccc1NC(=O)CON=C(N)c1ccccc1
yes (1)

State whether the measured solubility kinetic reaches 4 µg/mL, counting equality as reaching it, for O=C(CCc1ccccc1)Nc1ccccc1C(=O)N1CCOCC1
yes (1)

Is the recorded value of solubility kinetic equal to or greater than 4 µg/mL for this compound? CCOC(=O)C1CNc2cc(S(=O)(=O)CC)ccc2O1 (centres undefined)
yes (1)

Is solubility kinetic for CN1CCN(Cc2nc3ccccc3n2C)CC1CCO (centres undefined) at or above 4 µg/mL?
yes (1)

State whether the measured solubility kinetic reaches 4 µg/mL, counting equality as reaching it, for O=C(N/C=C/n1cnc2cc(C(F)(F)F)ccc21)c1ccccc1F
yes (1)

Can O=[N+]([O-])c1ccc(-n2cnc3ccccc32)c([N+](=O)[O-])c1 be said to have solubility kinetic at or above 4 µg/mL?
yes (1)

Tell me whether solubility kinetic is at least 4 µg/mL here: CC(=O)Nc1nc(C)c(-c2nc3ccc([N+](=O)[O-])cc3[nH]2)s1
no (0)

Given CC(=O)NC1(C(F)(F)F)NC(=O)N(CCc2ccccc2)C1=O (centres undefined) , state whether its solubility kinetic is at least 4 µg/mL.
yes (1)

Does solubility kinetic meet or surpass 4 µg/mL for COc1ccc(S(=O)(=O)NCC2CCC(C(=O)O)CC2)cc1 (centres undefined) ?
yes (1)

Check if solubility kinetic >= 4 µg/mL (inclusive). Item: Cc1ccc(C)c(OCC(O)CNC2CCCC2)c1.Cl (centres undefined)
yes (1)

Can Cc1ccc(S(=O)(=O)NCCc2c[nH]c3ccccc23)cc1 be said to have solubility kinetic at or above 4 µg/mL?
yes (1)

---

Each entry below carries its reported solubility kinetic.
CONDITION PARAMETERS: buffer; pH 7.4; 200.0 µM

Study these solved cases before continuing.
COMPOUND: CCN(CC)CC#CCC(O)(c1ccccc1)c1ccccc1
OBS VALUE: > 46.1 µg/mL
//
COMPOUND: CCOCCCNC(=O)c1ccc(NC(=O)C2CCCO2)cc1 (stereo unspecified)
OBS VALUE: > 48.1 µg/mL
//
COMPOUND: COCCc1nnc(NC(=O)C(C)C)s1
OBS VALUE: > 34.4 µg/mL

Tell me measured solubility kinetic for COc1ccc(CNCC(O)COc2ccc(C)cc2[N+](=O)[O-])cc1 (stereo unspecified) please.
> 52 µg/mL
